# Test system: HOP-92 NSCLC
# Assay explanation: NCI tumour cell line growth inhibition, 48 h
Measure name: GI50

{"Compound": "O=S(=O)(NCCCNc1cc(-c2cn(-c3ccccc3)nc2-c2cccc(O)c2)ccn1)c1ccc(Cl)cc1", "System": "HOP-92 NSCLC", "Value reported": "1520 nM"}
{"Compound": "NC(N)=Nc1nc2ccccc2[nH]1", "System": "HOP-92 NSCLC", "Value reported": "103 µg/mL"}
{"Compound": "COC(=O)c1ccc(C2SCC(=O)N2NC(=O)C(O)c2ccccc2)cc1 (stereo not given)", "System": "HOP-92 NSCLC", "Value reported": "> 100000 nM"}
{"Compound": "COc1ccc(Nc2ncccc2C(=O)NCc2cn(Cc3cccc(Oc4ccccc4)c3)nn2)cc1", "System": "HOP-92 NSCLC", "Value reported": "5670 nM"}
{"Compound": "COc1cc2c3c(c4c5ccccc5[nH]c4c2c(OC)c1OC)C(=O)N(CCN1CCCCC1)C3=O", "System": "HOP-92 NSCLC", "Value reported": "1300 nM"}
